The measured values listed here are drawn from ChEMBL document CHEMBL3244022.

Test system: Enterococcus
Experiment: Antimicrobial activity against Enterococcus 2862 by agar dilution method
Format: functional
# MIC annotations

| compound | quantity | measured |
| --- | --- | --- |
| Cn1nnnc1SCC1=C(C(=O)O)N2C(=O)[C@@H](NC(=O)C(O)c3ccccc3)[C@H]2CC1 (mixture of isomers) | MIC | > 100 µg/mL |

Exam item: Identify measured MIC corresponding to CO[C@@]1(NC(=O)Cc2cccs2)C(=O)N2C(C(=O)O)=C(COC(N)=O)CC[C@@H]21 (racemic)
Marked response: > 100 µg/mL

Exam item: Identify measured MIC corresponding to CO[C@@]1(NC(=O)Cc2cccs2)C(=O)N2C(C(=O)O)=C(COC(N)=O)CS[C@@H]21 [CEFOXITIN]
Marked response: > 100 µg/mL
